system: B. subtilis 168; experiment: fitness (endpoint OD595 vs no drug) (fraction); higher = more growth; conditions: first compound 0.25 µg/mL; partner 0.25 µg/mL; one replicate;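 further: OD595 on entry to stationary phase over no-drug wells; at most 1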
Measured fitness, listed per entry for reference.
When you answer, write just the number.

Example entries and their recorded answers appear below.
CO[C@@H]1[C@@H](OC(N)=O)[C@@H](O)[C@H](Oc2ccc3c(O)c(NC(=O)c4ccc(O)c(CC=C(C)C)c4)c(=O)oc3c2C)OC1(C)C [Novobiocin] + COc1cc(Cc2cnc(N)nc2N)cc(OC)c1OC [Trimethoprim]    0.459
CC(=O)NC[C@H]1CN(c2ccc(N3CCOCC3)c(F)c2)C(=O)O1 [Linezolid] + CN(C)c1cc(NC(=O)CNC(C)(C)C)c(O)c2c1C[C@H]1C[C@H]3[C@H](N(C)C)C(O)=C(C(N)=O)C(=O)[C@@]3(O)C(O)=C1C2=O [Tigecycline]    0.839
CC(=O)NC[C@H]1CN(c2ccc(N3CCOCC3)c(F)c2)C(=O)O1 [Linezolid] + CO[C@@H]1[C@@H](OC(N)=O)[C@@H](O)[C@H](Oc2ccc3c(O)c(NC(=O)c4ccc(O)c(CC=C(C)C)c4)c(=O)oc3c2C)OC1(C)C [Novobiocin]    0.218

Okay, next one:
Entry under test: CO[C@@H]1[C@@H](OC(N)=O)[C@@H](O)[C@H](Oc2ccc3c(O)c(NC(=O)c4ccc(O)c(CC=C(C)C)c4)c(=O)oc3c2C)OC1(C)C [Novobiocin] + CC1=C\[C@@H](O)CC(=O)Cc2nc(co2)C(=O)N2CCC=C2C(=O)O[C@H](C(C)C)[C@H](C)/C=C/C(=O)NC\C=C\1 [Virginiamycin M1] . Its fitness was 0.884
